assay system: human SCD1 (Homo sapiens, UniProt O00767)
Construct: expressed in transfected cells; host or cells: yeast strain with OLE1 deleted, plasmid-borne human SCD1 (selected in SD-Ura)
Sequence (O00767 1-359): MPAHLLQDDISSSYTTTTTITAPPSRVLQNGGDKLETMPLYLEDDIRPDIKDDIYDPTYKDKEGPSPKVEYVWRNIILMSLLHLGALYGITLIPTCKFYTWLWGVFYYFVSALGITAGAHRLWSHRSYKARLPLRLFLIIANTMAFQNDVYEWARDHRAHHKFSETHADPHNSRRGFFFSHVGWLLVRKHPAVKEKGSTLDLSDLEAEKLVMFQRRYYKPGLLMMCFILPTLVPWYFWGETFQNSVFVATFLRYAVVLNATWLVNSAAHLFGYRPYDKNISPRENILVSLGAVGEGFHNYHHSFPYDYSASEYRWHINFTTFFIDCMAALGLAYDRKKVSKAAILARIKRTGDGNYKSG
assay remarks: Growth inhibition of yeast strain expressing human SCD1 as sole desaturase (OLE1 deleted), OD600 readout
Type: cell-based
condition description: yeast strain expressing human SCD1 as sole desaturase; growth (OD600) after 40 h at 30° C.; read-out: SCD1 IC50
pIC50: −log10 of the molar value.
Listing of entries alongside the reported pIC50.
recorded endpoint: pIC50

Cc1ccc(NC(=O)c2ccc(Cc3cccc(F)c3)cn2)nn1    6.08
Cc1cc(C(=O)Nc2ccc(Cc3ccc(F)c(F)c3)cn2)cn(C)c1=O    6.24
Cn1nc(CO)cc1C(=O)Nc1ccc(Cc2cccc(F)c2)cn1    7.22
Cn1nc(OC(=O)N2CCC(Oc3cccc(Cl)c3)CC2)ccc1=O    5.93

====

Listing of entries alongside the reported IC50.
assay system: human SCD1 (Homo sapiens, UniProt O00767)
Construct: expressed in transfected cells; host or cells: yeast strain with OLE1 deleted, plasmid-borne human SCD1 (selected in SD-Ura)
assay remarks: Growth inhibition of yeast strain expressing human SCD1 as sole desaturase (OLE1 deleted), OD600 readout
Type: cell-based
condition description: yeast strain expressing human SCD1 as sole desaturase; growth (OD600) after 40 h at 30° C.; read-out: SCD1 IC50
recorded endpoint: IC50 (µM)

O=C(Nc1ccc(Nc2cccc(Cl)c2)cn1)c1ccc(=O)n(C2CC2)n1    4.18
N#Cc1cnc(C(=O)Nc2ccc(Cc3ccc(F)c(C#N)c3)cn2)cn1    1.9
CS(=O)(=O)c1cccc(C(=O)Nc2ccc(Cc3cccc(F)c3)cn2)c1    1.24
CN1N=C(C(=O)Nc2ccc(Cc3ccc(Cl)c(F)c3)cn2)CCC1=O    2.74

====

Listing of entries alongside the reported log10 of IC50.
assay system: human SCD5 (Homo sapiens)
Construct: expressed in transfected cells; host or cells: yeast strain with OLE1 deleted, plasmid-borne human SCD5 (selected in SD-Ura)
Sequence (Q86SK9 whole entry): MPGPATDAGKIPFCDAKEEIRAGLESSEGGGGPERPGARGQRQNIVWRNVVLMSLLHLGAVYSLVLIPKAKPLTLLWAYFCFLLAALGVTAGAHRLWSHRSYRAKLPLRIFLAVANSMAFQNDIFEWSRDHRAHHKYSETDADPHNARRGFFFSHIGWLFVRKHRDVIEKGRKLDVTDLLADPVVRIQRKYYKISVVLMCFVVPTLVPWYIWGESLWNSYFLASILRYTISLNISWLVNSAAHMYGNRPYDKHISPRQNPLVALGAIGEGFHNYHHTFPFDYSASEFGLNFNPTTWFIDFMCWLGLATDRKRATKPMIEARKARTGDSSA
assay remarks: Growth inhibition of yeast strain expressing human SCD5 as sole desaturase (OLE1 deleted), OD600 readout
Assay type: cell-based
condition description: yeast strain expressing human SCD5 as sole desaturase; growth (OD600) after 40 h at 30° C.; read-out: SCD5 IC50
recorded endpoint: log10 of IC50 (log10 of the value in nM)

Cn1nc(C(=O)Nc2ccc(COc3cc(F)cc(F)c3)cn2)ccc1=O    2.26
Cn1cccc(C(=O)Nc2ccc(Cc3ccc(F)c(Cl)c3)cn2)c1=O    1.00
Cn1cc(C(=O)Nc2ccc(Cc3ccc(F)c(F)c3)cn2)n(C)c1=O    1.00
N#Cc1ccc(C(=O)Nc2ccc(Cc3ccc(F)c(F)c3)cn2)cn1    2.34
Cn1ccc(C(=O)Nc2ccc(Cc3ccc(F)c(F)c3)cn2)nc1=O    3.48
CN1N=C(C(=O)Nc2nc(Cl)c(Cc3cccc(F)c3)s2)CCC1=O    2.56
Cn1nccc(C(=O)Nc2ccc(Cc3cccc(F)c3)cn2)c1=O    1.43
Cc1cnc(C(=O)Nc2ccc(Cc3cccc(F)c3)cn2)nc1    1.78
CC(C)(O)c1ccc(C(=O)Nc2ccc(Cc3cccc(Cl)c3)cn2)cn1    3.85
Cc1cc(C(=O)Nc2ccc(Cc3cccc(F)c3)cn2)c(=O)n(C)n1    1.73
Cn1cc(C(=O)Nc2ccc(N3CC(Oc4cccc(Cl)c4)C3)cn2)ccc1=O    3.95
O=C(Nc1ccc(Cc2cccc(F)c2)cn1)c1cnc2nsnc2c1    2.23
O=C(Nc1ccc(Cc2ccc(F)c(F)c2)cn1)c1ccnnc1    1.40
N#Cc1ccc(C(=O)Nc2ccc(Cc3cccc(Cl)c3)cn2)cn1    1.48
CN1N=C(NC(=O)c2ccc(Cc3cccc(F)c3)cn2)CCC1=O    2.79
COc1cccc(Cc2ccc(NC(=O)c3ccc(=O)n(C)n3)nc2)c1    2.89
Cn1cc(C(=O)Nc2nnc(Cc3ccc(F)c(Cl)c3)s2)ccc1=O    3.73
Cn1cc(C(=O)Nc2ccc(Nc3cccc(F)c3)cn2)ccc1=O    4.51

====

assay system: human SCD1 (Homo sapiens, UniProt O00767)
Construct: expressed in transfected cells; host or cells: yeast strain with OLE1 deleted, plasmid-borne human SCD1 (selected in SD-Ura)
Sequence (O00767 1-359): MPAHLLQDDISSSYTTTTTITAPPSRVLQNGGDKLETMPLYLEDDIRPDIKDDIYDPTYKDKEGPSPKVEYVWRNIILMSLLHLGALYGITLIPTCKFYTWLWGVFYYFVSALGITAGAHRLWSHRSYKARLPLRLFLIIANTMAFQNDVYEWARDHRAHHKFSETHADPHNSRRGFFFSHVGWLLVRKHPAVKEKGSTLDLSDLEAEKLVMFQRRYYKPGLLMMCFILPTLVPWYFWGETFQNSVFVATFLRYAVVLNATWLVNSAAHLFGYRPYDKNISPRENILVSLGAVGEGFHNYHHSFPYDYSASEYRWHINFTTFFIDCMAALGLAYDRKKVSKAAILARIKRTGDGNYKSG
assay remarks: Growth inhibition of yeast strain expressing human SCD1 as sole desaturase (OLE1 deleted), OD600 readout
Format: cell-based
condition description: yeast strain expressing human SCD1 as sole desaturase; growth (OD600) after 40 h at 30° C.; read-out: SCD1 IC50
I'd appreciate it if you marked entries fulfilled when IC50 is lower than 1 µM and not fulfilled when it is not.

N#Cc1ccc(C(=O)Nc2ccc(Cc3cc(F)cc(F)c3)cn2)cn1    not fulfilled
CN1N=C(C(=O)Nc2ccc(Cc3cccc(F)c3)nc2)CCC1=O    not fulfilled
CN1N=C(C(=O)Nc2ncc(Cc3ccc(C#N)cc3)s2)CCC1=O    not fulfilled
Cn1nc(C(=O)Nc2ncc(Cc3ccc(F)c(F)c3)cc2F)ccc1=O    not fulfilled
O=C(Nc1ccc(Cc2cccc(Cl)c2)cn1)N1CCn2nccc2C1    not fulfilled
CCn1cc(C(=O)Nc2ccc(Cc3ccc(F)cc3)cn2)ccc1=O    not fulfilled
O=C(Nc1ccc(Cc2cccc(F)c2)cn1)c1csc(Br)n1    not fulfilled
CN1N=C(C(=O)Nc2ncc(C(O)c3cccc(F)c3)s2)CCC1=O (stereo not shown)    not fulfilled
CC(=O)Nc1ccc(/C=C/c2cccc(Cl)c2)nn1    not fulfilled
Cc1nc(NC(=O)C2=NN(C)C(=O)CC2)sc1Cc1cccc(F)c1    not fulfilled
Cn1cc(C(=O)Nc2ccc(Cc3cccc(F)c3)cn2)cc(F)c1=O    fulfilled
Cc1cc(C(=O)Nc2ccc(Cc3cc(F)cc(F)c3)cn2)nn(C)c1=O    not fulfilled
Cn1cccc(C(=O)Nc2ccc(Cc3ccc(F)c(Cl)c3)cn2)c1=O    fulfilled
Cn1cc(C(=O)Nc2ccc(COc3ccc(F)cc3)cn2)ccc1=O    not fulfilled
Cn1cc(C(=O)N2CCC(Oc3cccc(Cl)c3)CC2)ccc1=O    not fulfilled
Cn1nc(C(=O)Nc2cncc(Cc3cccc(Cl)c3)c2)ccc1=O    not fulfilled
O=C(Nc1ccc(Cc2cccc(Cl)c2)cn1)c1cnc(CO)c(F)c1    fulfilled
CN1N=C(C(=O)Nc2ccc(OCc3cc(F)cc(C#N)c3)cn2)CCC1=O    not fulfilled
N#Cc1ccc(C(=O)Nc2ccc(Cc3cc(F)ccc3F)cn2)cn1    not fulfilled
CN1N=C(C(=O)Nc2ccc(COc3cccc(Cl)c3)nn2)CCC1=O    not fulfilled
Cn1nc(C(=O)Nc2ccc(Nc3cccc(F)c3)cn2)ccc1=O    not fulfilled
Cn1ccc(C(=O)Nc2ccc(Cc3ccc(F)cc3)cn2)n1    fulfilled
CN1N=C(C(=O)Nc2ccc(Oc3cccc(Cl)c3)cn2)CCC1=O    not fulfilled
CN1N=C(C(=O)Nc2ncc(Cc3cc(F)cc(F)c3)s2)CCC1=O    fulfilled
CN1C(=O)CCC1C(=O)Nc1ncc(Cc2cccc(F)c2)s1 (stereo not shown)    not fulfilled
O=C(Nc1ccc(Cc2ccc(F)c(F)c2)cn1)c1ncc(CO)cn1    fulfilled
CC(O)c1ccc(C(=O)Nc2ccc(Cc3ccc(F)c(F)c3)cn2)cn1 (stereo not shown)    not fulfilled
CN(c1ccc(NC(=O)c2ccc(=O)n(C)c2)nc1)c1cccc(F)c1    not fulfilled
Cn1nc(C(=O)Nc2ccc(Cc3cc(F)cc(C#N)c3)cn2)ccc1=O    not fulfilled
Cn1cc(NC(=O)c2ccc(Cc3ccc(F)c(F)c3)cn2)ccc1=O    not fulfilled
C=CCCc1ccc(NC(=O)C2=NN(C)C(=O)CC2)nc1    not fulfilled
Cn1cccc(C(=O)Nc2ccc(Cc3cc(F)cc(F)c3)cn2)c1=O    fulfilled
Cn1cc(C(=O)Nc2ccc(Cc3cccc(Cl)c3)cn2)ncc1=O    not fulfilled
O=C(Nc1ccc(Cc2ccc(F)c(F)c2)cn1)c1ccc2nncn2c1    fulfilled
CC(C)(O)c1ccc(C(=O)Nc2ccc(Cc3cccc(Cl)c3)cn2)cn1    not fulfilled
Cn1ccc(C(=O)Nc2ccc(Cc3cc(F)ccc3F)cn2)cc1=O    not fulfilled

Data origin, for the record: patent US20230078764A1
